test: Ionization potential measurements (pK) by potentiometry; format: physicochemical; conditions: second of two pK's; read-out: pK (second of two)
Attribute Measured: pKa
Output: the number by itself.

I have this compound here, NCCNC[C@H]1O[C@@H]2O[C@H]3[C@H](O)[C@@H](O)[C@@H](O[C@H]4[C@H](O)[C@@H](O)[C@@H](O[C@H]5[C@H](O)[C@@H](O)[C@@H](O[C@H]6[C@H](O)[C@@H](O)[C@@H](O[C@H]7[C@H](O)[C@@H](O)[C@@H](O[C@H]8[C@H](O)[C@@H](O)[C@@H](O[C@H]1[C@H](O)[C@H]2O)O[C@@H]8CO)O[C@@H]7CO)O[C@@H]6CO)O[C@@H]5CO)O[C@@H]4CO)O[C@@H]3CO [reference compound] , and I need its recorded pKa.
9.5
